Test system: Mus musculus
Experiment: Toxicity in mouse assessed as bleeding time at 22 mg/kg, po administered 90 mins before surgery measured up to 15 mins by tail bleeding test
Type: organism-based
Details: in vivo
attribute measured: Activity

Previously resolved entries follow.
CCCCCCOC(=O)/N=C(\N)c1ccc(CC2NCCn3c2nc2cc(C(=O)N(CCC(=O)OCc4nc(C)c(C)nc4C)c4ccccn4)ccc23)cc1 (configuration not stated) = Non-toxic
CCOC(=O)CCN(C(=O)c1ccc2c(c1)nc1n2CCNC1Cc1ccc(/C(N)=N/C(=O)OC(C)C)cc1)c1ccccc1 (configuration not stated) = Toxic
CCCCCCOC(=O)/N=C(\N)c1ccc(CC2NCCn3c2nc2cc(C(=O)N(CCC(=O)OCC)c4ccccc4)ccc23)cc1 (configuration not stated) = Non-toxic
CCCCCCOC(=O)/N=C(\N)c1ccc(CC2NCCn3c2nc2cc(C(=O)N(CCC(=O)OCC)c4ccccn4)ccc23)cc1 (configuration not stated) = Toxic
CCCCCCOC(=O)/N=C(\N)c1ccc(CC2c3nc4cc(C(=O)N(CCC(=O)OCC)c5ccccc5)ccc4n3CCN2C(=O)OCCCCCC)cc1 (configuration not stated) = Non-toxic

Challenge: # input compound: CCCCCCOC(=O)/N=C(\N)c1ccc(CC2NCCn3c2nc2cc(C(=O)N(CCC(=O)OCc4nc(C)c(C)nc4C)c4ccccc4)ccc23)cc1 (configuration not stated) ; wanted: its Activity
Response given: Toxic

Challenge: # input compound: CCCCCCOC(=O)/N=C(\N)c1ccc(CC2c3nc4cc(C(=O)N(CCC(=O)OCC)c5ccccn5)ccc4n3CCN2C(=O)OCCCCCC)cc1 (configuration not stated) ; wanted: its Activity
Response given: Non-toxic
